Assay: Bidirectional Caco permeability
Type: in vitro ADME
Conditions: human, Caco-2, pH 7.4; Papp (B to A) / Papp (A to B); read-out: ER (efflux ratio)
assay-endpoint: efflux ratio at 1 h, 10 μM

// efflux ratio at 1 h, 10 μM value for CC12CC3CC(C)(C1)CC(N)(C3)C2 [memantine] : ~1

---

Test: Pharmacokinetics in rats after single iv, po or sc dose (plasma and brain)
Assay type: in vivo, Sprague-Dawley rats
Conditions: male, Sprague-Dawley, 10 mg/kg; rat brain, SC 10.0 mg eq./kg
Method: Sprague Dawley (SD) rats (138 adult males), and C57Bl/6 mice (140 adult males), were obtained (Hilltop Laboratories, Scottsdale, PA); 123 per species were used in the study and the remainder provided blank matrix. […] The area under the plasma concentration versus time curve (AUC) was calculated using the linear trapezoidal method (linear interpolation). […] Concentrations of memantine in rat and mouse plasma and brain were determined using an LC-MS/MS assay developed at ABC Laboratories.
assay-endpoint: AUC(0-t) (µM·h)
Express your answer in µM·h, writing the number without its unit.

// AUC(0-t) value for CC12CC3CC(C)(C1)CC(N)(C3)C2 [memantine] : 441

---

Assay: Pharmacokinetics in rats after single iv, po or sc dose (plasma and brain)
Type: in vivo, Sprague-Dawley rats
Details: male, Sprague-Dawley, rat, brain, sc, 10 mg/kg, rat brain, SC 10.0 mg eq./kg; read-out: Half-life (t½) (converted)
assay-endpoint: half-life (h)
Express your answer in h, writing the number without its unit.

// half-life value for CC12CC3CC(C)(C1)CC(N)(C3)C2 [memantine] : 2.65

---

Assay: in vivo
Conditions: male, C57Bl/6, mouse, iv, 1 mg/kg
assay-endpoint: MRT inf (h)
Express your answer in h, writing the number without its unit.

// MRT inf value for CC12CC3CC(C)(C1)CC(N)(C3)C2 [memantine] : 2.35

---

Assay: Pharmacokinetics in rats after single iv, po or sc dose (plasma and brain)
Format: in vivo, Sprague-Dawley rats
Conditions: male, Sprague-Dawley, plasma, 1.22 mg/kg; rat, IV 1.22 mg eq./kg; read-out: Volume of Distribution at Steady State (Vdss)
assay-endpoint: Vd

// Vd value for CC12CC3CC(C)(C1)CC(N)(C3)C2 [memantine] : 8.62 L/kg

---

Assay: Pharmacokinetics in rats after single iv, po or sc dose (plasma and brain)
Type: in vivo, Sprague-Dawley rats
Settings: male, Sprague-Dawley, plasma; rat, IV 1.22 mg eq./kg; read-out: Volume of Distribution at Steady State (Vdss)
assay-endpoint: Vd

// Vd value for CC12CC3CC(C)(C1)CC(N)(C3)C2 [memantine] : 8 to 9 L/kg

---

Test: in vivo
Details: male, C57Bl/6, mouse, sc, 10 mg/kg
assay-endpoint: bioavailability (%)
Express your answer in %, writing the number without its unit.

// bioavailability value for CC12CC3CC(C)(C1)CC(N)(C3)C2 [memantine] : 150

---

Assay: Pharmacokinetics in rats after single iv, po or sc dose (plasma and brain)
Type: in vivo, Sprague-Dawley rats
Details: male, Sprague-Dawley, rat, plasma, intravenous, oral, subcutaneous, rat, all dose routes and levels (plasma; b142 also brain); read-out: elimination half-life
assay-endpoint: half-life

// half-life value for CC12CC3CC(C)(C1)CC(N)(C3)C2 [memantine] : 180 to 240 min

---

Test: Pharmacokinetics in rats after single iv, po or sc dose (plasma and brain)
Type: in vivo, Sprague-Dawley rats
Details: male, Sprague-Dawley, brain/plasma; rat, IV 1.22 mg eq./kg; read-out: Ratio of Brain-to-Plasma AUC(0-∞)
assay-endpoint: Kp
Give your answer as a number; write no unit.

// Kp value for CC12CC3CC(C)(C1)CC(N)(C3)C2 [memantine] : 29.1
